Catalogue of IC50 readings, one per entry.
system: MCF7; test: Antiproliferative activity against human MCF7 cells assessed as reduction in cell optical density incubated for 48 hrs by MTT assay; assay type: functional, cell-based; details: MCF7, 48 h

>  <Cpd smiles>
FC(F)(F)Oc1cccc(Nc2ccnc3cc(OCCCCCCOc4ccc5c(Nc6cccc(OC(F)(F)F)c6)ccnc5c4)ccc23)c1

>  <Tested target>
MCF7

>  <IC50>
> 200 µM

$$$$
>  <Cpd smiles>
CN1CCN(c2ccnc3cc(OCCCCOc4ccc5c(N6CCN(C)CC6)ccnc5c4)ccc23)CC1

>  <Tested target>
MCF7

>  <IC50>
> 200 µM

$$$$

Note: attention shifts to another entry.
Recorded result, FC(F)(F)Oc1cccc(Nc2ccnc3cc(OCCCCOc4ccc5c(Nc6cccc(OC(F)(F)F)c6)ccnc5c4)ccc23)c1 , IC50: > 200 µM
